Known pIC50 of a selection of molecules
Tested on: BSR cells, Bluetongue virus CPE, ATP luminescence, 72 h
ASSAY_OVERVIEW: inhibitors of Bluetongue virus cytopathic effect, confirmation, arbovirus, BSR cells (AID 1250)
pIC50: −log10 of the molar value.

STRUCTURE_NOTATION	pIC50
COc1ccc(Cn2c(C)c(C)c(C#N)c2NC(=O)Nc2cccc(C)c2)cc1	5.12
COc1ccc(NC(=O)c2cc3cccc(OC)c3oc2=Nc2ccc(C(=O)O)cc2)cc1OC	4.88
CCCCCCc1cc2cc(C(=O)Nc3ccccc3OC)c(=O)oc2cc1O	5.04

###

Known CPE inhibition of a selection of compounds
ASSAY_OVERVIEW: inhibitors of Bluetongue virus cytopathic effect, confirmation, arbovirus, BSR cells (AID 1250)
ASSAY_SETUP: BSR cells, Bluetongue virus CPE, ATP luminescence, 72 h; at 20 µM (top of the series)
Active and inactive are the calls of the source.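 The calls were made as follows: active = inhibition of at least 30% at one or more tested concentrations; inactive = inhibition below 30% at every dose.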
RESULT_TYPE: CPE inhibition

STRUCTURE_NOTATION	RESULT_TYPE	EXPERIMENTAL_VALUE
CCCCCNc1nc2ccccc2nc1NS(=O)(=O)c1cccs1	CPE inhibition	20.4% (inactive)
Cc1nn(-c2ccccc2)c2nc(C(F)(F)F)[nH]c(=O)c12	CPE inhibition	20% (inactive)
Oc1ccc(Br)cc1-c1cc(-c2ccccc2)n[nH]1	CPE inhibition	19.6% (inactive)

###

ASSAY_OVERVIEW: inhibitors of Bluetongue virus cytopathic effect, confirmation, arbovirus, BSR cells (AID 1250)
ASSAY_SETUP: BSR cells, Bluetongue virus CPE, ATP luminescence, 72 h; at 20 µM (top of the series)
Activity calls are given as the source filed them.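 The calls were made as follows: active = inhibition of at least 30% at one or more tested concentrations; inactive = inhibition below 30% at every dose.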
Known CPE inhibition of a selection of compounds

STRUCTURE_NOTATION	CPE inhibition
CSc1nsc2nc(=O)c(/C=C3\C(C)=Nc4ccccc43)c(N)n12	23% (inactive)
COc1ccc(-c2csc(Nc3ccc(S(=O)(=O)Nc4cc(C)on4)cc3)n2)cc1	14.2% (inactive)
Cc1ccccc1S(=O)(=O)Nc1ncnc2scc(-c3ccccc3)c12	20.4% (inactive)

###

Known IC50 of a selection of molecules
Tested on: BSR cells, Bluetongue virus CPE, ATP luminescence, 72 h
ASSAY_OVERVIEW: inhibitors of Bluetongue virus cytopathic effect, confirmation, arbovirus, BSR cells (AID 1250)

MOLECULE	IC50
CCNc1nc(SCCOc2ccc(Cl)cc2Cl)nc(N(C)C)n1	5.92 µM
Oc1ccc(Nc2nc(NCC3CCCO3)c3ccccc3n2)cc1 (stereo unspecified)	20.8 µM
O=C(O)c1cccc(N/N=C/C2=C(Cl)c3cc(Cl)ccc3SC2)c1	13.2 µM
O=C(O)c1ccc(N2C(=O)/C(=C/c3ccc(-c4ccc([N+](=O)[O-])cc4)o3)C=C2c2ccccc2)cc1	5.33 µM
O=C(Nc1nc(-c2ccccc2)cs1)c1cccs1	10.1 µM
COC(=O)c1ccccc1NC(=O)CN1CCC(n2nnc3cc(F)ccc32)CC1	0.178 µM
Nc1nc(-c2ccccc2)c(-c2ccc([N+](=O)[O-])cc2)s1	5.6 µM
COCCCn1c(N)c(-c2nc3ccccc3n2C)c2nc3ccccc3nc21	7.62 µM
COc1ccc(CN(C(=O)c2cc3ccccc3oc2=O)C2CCCCC2)cc1OC	16.6 µM
Cc1ccc(-c2csc(NC(=O)C3=NN(c4ccccc4)C(=O)CC3)n2)cc1	11.1 µM
COc1cc(C(=O)Nc2nc(-c3ccc(C)cc3)cs2)ccc1OCC(=O)N1CCOCC1	4 µM
CC(C)COc1ccc(C(=O)Nc2sc3c(c2C(=O)O)CC(C)(C)OC3)cc1	13.1 µM
CC(NC(=O)c1cccs1)c1nnc(SCc2ccc(Cl)cc2Cl)n1C (stereo unspecified)	9.37 µM
Cc1nc(Nc2ccc3c(c2)OCCO3)c2nnn(Cc3ccccc3Cl)c2n1	20.8 µM
CC(C)(C)c1c(Cl)c(O)c(-c2ccccc2)c(=O)n1-c1ccccc1	15.5 µM
COc1cc([N+](=O)[O-])ccc1NC(=O)CC1SC(=Nc2ccc(F)cc2)N(CCC2=CCCCC2)C1=O (stereo unspecified)	0.108 µM
CCc1cc(C(=O)O)c(NC(=O)/C=C/c2ccc(OC)c(OC)c2)s1	1.68 µM
Cc1ccc(-c2csc(NC(=O)/C=C/c3ccco3)c2C(=O)O)cc1	8.57 µM
COc1cc(C(=O)Nc2nc(-c3ccc(F)cc3)cs2)ccc1OCC(=O)N1CCOCC1	10.6 µM
Cc1cccc(C)c1-n1cccc1/C=C1/C(=N)N2C(=NC1=O)SN=C2S(C)(=O)=O	16.4 µM
O=C(Nc1nc(-c2ccc(Cl)cc2Cl)cs1)c1ccc(OCC2CCCO2)cc1 (stereo unspecified)	5.08 µM
Oc1ccc(Br)cc1-c1cc(-c2ccc(Cl)cc2)n[nH]1	17.5 µM
Cc1ccc(N2C(=O)/C(=C\c3ccc(C(C)C)cc3)N=C2SC2CCOC2=O)cc1 (stereo unspecified)	12.1 µM
COc1ccc(-c2csc(NC(=O)C3=NN(c4ccccc4)C(=O)CC3)n2)cc1	20.7 µM
COc1ccc(Cl)cc1NC(=O)c1cc(-c2ccccc2O)n[nH]1	14.4 µM
CCOc1cc(/C=C(/C#N)c2ccc(Cl)cc2)cc(Cl)c1OCC(=O)O	20.6 µM
CC(C)c1ccc(-c2csc(NC(=O)c3cccs3)c2C(=O)O)cc1	11.1 µM
Cn1c(-c2c(N)n(-c3ccccc3)c3nc4ccccc4nc23)nc2ccccc21	2.42 µM
CCOC(=O)c1ccc(N2C(=O)C3C(/C=C/c4ccccc4)OC4(C(=O)c5ccccc5C4=O)C3C2=O)cc1 (stereo unspecified)	19.6 µM
COc1ccc(C2C=C(c3ccc(C)cc3)Nc3ncnn32)cc1 (stereo unspecified)	13 µM
COc1cccc(C(=O)Nc2nc(-c3ccc4c(c3)OCO4)cs2)c1	9.98 µM
COc1ccc(-c2csc(NC(=O)c3ccco3)n2)cc1	19.3 µM
COc1ccc(N=C2S/C(=C\c3ccc(OCC(=O)O)cc3)C(=O)N2CCc2c[nH]c3ccccc23)cc1	15.6 µM
CCOc1ccc(N=Nc2c(=O)[nH]n3c(=O)c4c([nH]c23)CCCC4)cc1	16.6 µM
C/C(=N\NC(=O)c1ccccc1C)c1ccc(NC(=O)c2cccs2)cc1	0.524 µM
O=C(/C=C/c1ccccc1)Nc1scc(-c2ccccc2)c1C(=O)O	3.06 µM

###

ASSAY_OVERVIEW: inhibitors of Bluetongue virus cytopathic effect, confirmation, arbovirus, BSR cells (AID 1250)
ASSAY_SETUP: BSR cells, Bluetongue virus CPE, ATP luminescence, 72 h; at 20 µM (top of the series)

MOLECULE	CPE inhibition [%]
Cc1nn(Cc2ccccc2)c(Cl)c1C(=O)NC1CCCc2ccccc21 (stereo unspecified)	16.5
CC(C)(C)c1ccc(C(=O)NC(=S)NCC2CCCO2)cc1 (stereo unspecified)	3.96
CCOc1ccc2nc(NC(=O)C3CCN(S(=O)(=O)c4cnc[nH]4)CC3)sc2c1	11.9
COc1ccc(S(=O)(=O)N/N=C(/C)c2cccc(NC(=O)c3ccccc3Cl)c2)cc1	15
COCCn1c(C)cc(C(=O)CSc2cc(C)c3ccccc3n2)c1C	7.16
CCOC(=O)c1nn(-c2ccc(Cl)cc2)c2nc(Nc3ccccc3)cc(=O)n12	28.9
CC(C)CCN(C(=S)NC(=O)C1CCCCC1)c1c(N)n(Cc2ccccc2)c(=O)[nH]c1=O	7
COc1ccc(-c2noc(-c3ccccc3-c3ccccc3)n2)cc1OC	10.8
O=C(CSc1nc2nn(-c3ccccc3)c(=O)c-2c2n1CCCCC2)NCCc1ccccc1	10.8
CCCS(=O)(=O)n1nc(-c2ccc(OC)cc2OC)cc1N	-1.58
Cc1ccc(-n2cccc2/C=C2/C(=N)N3C(=NC2=O)SN=C3S(C)(=O)=O)cc1	12.1
C#CCSc1ncc(S(=O)(=O)c2ccccc2)c(=O)[nH]1	1.65
CCOC(=O)c1c(-c2ccc(C)c(C)c2)csc1NC(=O)C1CC=CCC1C(=O)O (stereo unspecified)	29.6
Brc1ccccc1/C=N/Nc1ccc2ccccc2n1	14.7
O=c1oc(/C=C/c2ccco2)nc2sc3c(c12)CCC3	21.9
Cc1cccc(-n2c3nc(=O)[nH]c(=O)c-3cc3cc([N+](=O)[O-])ccc32)c1	16.1

###

ASSAY_OVERVIEW: inhibitors of Bluetongue virus cytopathic effect, confirmation, arbovirus, BSR cells (AID 1250)
ASSAY_SETUP: BSR cells, Bluetongue virus CPE, ATP luminescence, 72 h; at 20 µM (top of the series)
RESULT_TYPE: CPE inhibition (%)

STRUCTURE_NOTATION	RESULT_TYPE	EXPERIMENTAL_VALUE
O=[N+]([O-])c1ccc(NCCNCCOc2nonc2-c2ccccc2)c([N+](=O)[O-])c1	CPE inhibition	6.24
O=c1oc(-c2cccs2)nc2sc3c(c12)CCCC3	CPE inhibition	21.2
CCOC(=O)c1ccc(NC(=O)Cn2nnc(-c3ccccc3)n2)cc1	CPE inhibition	12.9
Cc1ccc(Nc2nc(N)c([N+](=O)[O-])c(N3CCOCC3)n2)cc1C	CPE inhibition	11.3
Cc1csc(NC(=O)c2ccc(C)c(S(=O)(=O)N3CCCCC3)c2)n1	CPE inhibition	24.1
COc1ccccc1N1CCN(Cc2cc(C)c(C)cc2O)CC1	CPE inhibition	25.1
